We begin with a simple list: items and their reported Ratio.
- assay.system: Glutamate NMDA receptor (Rattus norvegicus) (UniProt P35439+Q00959+Q00960+Q00961+Q62645+Q8VHN2+Q9R1M7)
- procedure.details: Ratio of potencies of (+) and (-) enantiomers against PCP in rats

Below are worked cases with known answers.
CCCCN1CC[C@]2(C)c3cc(O)ccc3CC1[C@@H]2C; 1.5
CCCN1CC[C@]2(C)c3cc(O)ccc3CC1[C@@H]2C; 2.3
CCCCCCCCCCN1CC[C@]2(C)c3cc(O)ccc3CC1[C@@H]2C; 0.4
C[C@H]1C2Cc3ccc(O)cc3[C@@]1(C)CCN2C; 0.03

Q: Param item = `CCCCCCCCN1CC[C@]2(C)c3cc(O)ccc3CC1[C@@H]2C` ; retrieve measured Ratio.
Ans: 0.1

Q: Can you check `CCCCCCN1CC[C@]2(C)c3cc(O)ccc3CC1[C@@H]2C` next?
Ans: 2.2

Q: Can you check `CCCCCCCCCN1CC[C@]2(C)c3cc(O)ccc3CC1[C@@H]2C` next?
Ans: 0.7

Q: Can you check `CCCCCCCN1CC[C@]2(C)c3cc(O)ccc3CC1[C@@H]2C` next?
Ans: 0.5
